Sourced from patent US20260355184A1

test_details: Cytotoxicity assay, Cell-Titer-Glo, HeLa-CD4-LTR-LacZ
condition_set: human, hela-cd4-ltr-lacz cells, Infectivity CC50, HeLa-CD4-LTR-LacZ; analogs of TT-44863 (Table 2)
Please provide measured CC50 for the entries that follow.

INSERT INTO assay_data (compound, result) VALUES
  ('COc1ccc(C(F)(F)F)cc1NC(=O)CCn1cc(C(F)(F)F)cc(Cl)c1=O [compound 47020]', '> 25 µM');

Dear colleague, could you please provide CC50 for the compounds listed below?
1. COCCOc1ccc(C(F)(F)F)cc1NC(=O)Cn1cccc(Cl)c1=O [compound 46704]
2. COc1ccc(C(F)(F)F)cc1NC(=O)Cn1cccc(Cl)c1=O [compound 46763]
3. COc1ccccc1CNC(=O)Cn1cc(C(F)(F)F)cc(Cl)c1=O [compound 46688]
4. O=C(Cn1cc(C(F)(F)F)cc(Cl)c1=O)Nc1cccc(C(F)(F)F)c1 [compound 46748]
5. COc1ccc(C(F)(F)F)cc1NC(=O)Cn1cc(C(F)(F)F)cc(F)c1=O [compound 47033]

// result
["> 100 µM", "> 100 µM", "> 100 µM", "> 100 µM", "50 to 100 µM"]

// input: 2 compounds below; output: CC50 for each
1. O=C(Cn1cc(C(F)(F)F)cc(Cl)c1=O)Nc1cc(C(F)(F)F)ccc1OCCN1CCOCC1 [compound 51]
2. COc1ccc(C(F)(F)F)cc1-c1noc(Cn2cc(C)cc(Cl)c2=O)n1 [compound 47198]

// result
50 to 100 µM
> 50 µM
